Source: paper PMC11032351

SYSTEM NAME: Recombinant BRD4(BD2) (Homo sapiens, UniProt O60885)
Construct: using the recombinant, individually purified bromodomains of BRD4 (GST-tagged BD1 and BD2)
ASSAY EXPLANATION: TR-FRET ligand displacement, recombinant GST-BRD4(BD2)
RUN PARAMETERS: GST-tagged, with 95% confidence interval
Kd strictly under 200 nM means Satisfied; at 200 nM or over means Not satisfied.

COMPOUND: Cn1cc(-c2cccnc2Oc2cc(F)cc(F)c2)c2cc[nH]c2c1=O [Compound 82A]
ASSIGNED LABEL: Satisfied

COMPOUND: Cn1ccc2c(-c3cccnc3Sc3ccc(F)cc3)c[nH]c2c1=O [Compound 84B]
ASSIGNED LABEL: Satisfied

COMPOUND: Cn1ccc2c(-c3cccnc3Oc3cc(F)cc(F)c3)c[nH]c2c1=O [Compound 82B]
ASSIGNED LABEL: Not satisfied

COMPOUND: Cn1cc(-c2cccnc2Nc2ccc(F)cc2)c2cc[nH]c2c1=O [Compound 85A]
ASSIGNED LABEL: Not satisfied

[in] Dear reviewer, please state whether Cn1ccc2c(-c3cccnc3Nc3ccc(F)cc3)c[nH]c2c1=O [Compound 85B] has Kd strictly beneath 200 nM.
[out] Not satisfied

[in] Dear reviewer, please state whether Cn1cc(-c2cccnc2Oc2ccc(F)c(F)c2)c2cc[nH]c2c1=O [Compound 81A] has Kd strictly beneath 200 nM.
[out] Satisfied

[in] Dear reviewer, please state whether Cn1cc(-c2cc(F)cnc2Oc2ccc(F)cc2)c2cc[nH]c2c1=O [Compound 86A] has Kd strictly beneath 200 nM.
[out] Not satisfied

[in] Dear reviewer, please state whether Cn1ccc2c(-c3cc(F)cnc3Oc3ccc(F)cc3)c[nH]c2c1=O [Compound 86B] has Kd strictly beneath 200 nM.
[out] Not satisfied

[in] Dear reviewer, please state whether Cn1cc(-c2cccnc2Oc2ccc(F)cc2)c2cc[nH]c2c1=O [Compound 18A] has Kd strictly beneath 200 nM.
[out] Satisfied

[in] Dear reviewer, please state whether Cn1ccc2c(-c3cccnc3Oc3ccc(F)cc3)c[nH]c2c1=O [Compound 18B] has Kd strictly beneath 200 nM.
[out] Satisfied

[in] Dear reviewer, please state whether Cn1ccc2c(-c3cccnc3Oc3ccc(F)c(F)c3)c[nH]c2c1=O [Compound 81B] has Kd strictly beneath 200 nM.
[out] Not satisfied
